# ASSAY_COMMENT: Thermodynamic solubility
# RUN_CONDITIONS: unbuffered water, thermodynamic from solid
REPORTED_METRIC: solubility thermodynamic (mg/mL)

INSERT INTO measurements (compound, reported_metric, unit_of_measure, recorded_number) VALUES
  ('CC(C)NC[C@H](O)COc1cccc2[nH]ccc12 [S-pindolol free base, reference compound]', 'solubility thermodynamic', 'mg/mL', 1.8);
